Data provenance: PubChem BioAssay (NCATS)

# methodDescription: Panc-1005 Cancer Cell Toxicity qHTS against the NCATS CANVASS Library (AID 1347349); note: nearly all actives have a fitted effect of over 60% in size
# conditions: Panc-1005 viability, CellTiter-Glo luminescence, 72 h; series mostly up to 38.3 µM
Results filed as inconclusive are left out. Active and inactive are the calls of the source. Calls come from the whole dose curve; as a rule, active = well fitted cell-killing curve with a large enough effect; inconclusive = small, poorly fitted or top-dose-only effect; inactive = flat fitted curve, though single readings scatter.
Hi there, use one of these labels in your reply, thanks! Yes (active), No (inactive)

Illustrative cases are given below, each with its answer.
molecule: COc1c(O)cc2c(c1O)C(=O)c1c(coc1C)C2=O
qualitativeLabel: No
//
molecule: C[C@H](CCC(O)C(C)(O)CO)[C@@]1(O)CC[C@@]2(C)C3=C(CC[C@@]21C)[C@@]1(C)CCC(OC(=O)CCC(=O)O)C(C)(C)[C@@H]1CC3 (some centres undefined)
qualitativeLabel: No
//
molecule: C=C1C(=O)O[C@H]2[C@H]1CCC(C)=C1CC[C@@](C)(O)[C@@H]12
qualitativeLabel: Yes

# evaluate next
Could you kindly confirm the outcome this assay logged for C/C=C(/CO)C(=O)O[C@@H]1[C@H](O)[C@@H](C(=O)OC)O[C@@H]2C[C@H]3OC(n4cnc5c(N)ncnc54)[C@H](OC)[C@H]3O[C@@]12O (some centres undefined) ?
No
